# System: Com21 synthetic gut community
# Protocol text: community biomass OD578 after 24 h drug treatment relative to untreated (fraction of untreated control); higher = more community growth
# Measurement setup: drug pretreatment concentration 20 µM; community: Com21 (Com20 + E. coli ED1a)
Assay readout: community biomass OD578
When you answer, write just the number.

Known results for compounds:
Compound | Experimental target | community biomass OD578
CCC[C@@H]1C[C@@H](C(=O)N[C@@H]([C@H]2O[C@H](SC)[C@H](O)[C@@H](O)[C@H]2O)[C@H](C)Cl)N(C)C1 | Com21 synthetic gut community | 0.273
CC[C@H]1OC(=O)[C@H](C)[C@@H](O[C@H]2C[C@@](C)(OC)[C@@H](O)[C@H](C)O2)[C@H](C)[C@@H](O[C@@H]2O[C@H](C)C[C@H](N(C)C)[C@H]2O)[C@](C)(O)C[C@@H](C)C(=O)[C@H](C)[C@@H](O)[C@]1(C)O | Com21 synthetic gut community | 0.696
Clc1ccccc1C(c1ccccc1)(c1ccccc1)n1ccnc1 | Com21 synthetic gut community | 1
CCOC1O[C@H]([C@@H](COCc2ccccc2)OCc2ccccc2)[C@H](OCc2ccccc2)[C@H]1O (some centres not stated) [Tribenoside] | Com21 synthetic gut community | 0.955
CCOC(=O)C1=C(C)NC(C)=C(C(=O)OCC)C1c1ccccc1/C=C/C(=O)OC(C)(C)C | Com21 synthetic gut community | 1
CCN(CC)CCOc1ccc(C(=C(Cl)c2ccccc2)c2ccccc2)cc1 | Com21 synthetic gut community | 0.955
Cc1c(N(C)CS(=O)(=O)O)c(=O)n(-c2ccccc2)n1C | Com21 synthetic gut community | 0.981
CN(C)CC/C=C1/c2ccccc2Sc2ccc(Cl)cc21 | Com21 synthetic gut community | 1.02
C[C@@H](O[C@H]1OCCN(Cc2n[nH]c(=O)[nH]2)[C@H]1c1ccc(F)cc1)c1cc(C(F)(F)F)cc(C(F)(F)F)c1 [Aprepitant] | Com21 synthetic gut community | 0.981
CCOC(=O)N1CCC(=C2c3ccc(Cl)cc3CCc3cccnc32)CC1 | Com21 synthetic gut community | 1.01

What value of community biomass OD578 has been reported for the following compound? "C#C[C@]1(O)CC[C@H]2[C@@H]3CCc4cc(O)ccc4[C@H]3CC[C@@]21C"
0.99

What value of community biomass OD578 has been reported for the following compound? "C/C=C(/C(=C/C)c1ccc(O)cc1)c1ccc(O)cc1"
0.972

What value of community biomass OD578 has been reported for the following compound? "CCC(C)(C)C(=O)O[C@H]1C[C@@H](C)C=C2C=C[C@H](C)[C@H](CC[C@@H]3C[C@@H](O)CC(=O)O3)[C@H]21"
0.99

What value of community biomass OD578 has been reported for the following compound? Cc1c(OCC(F)(F)F)ccnc1C[S+]([O-])c1nc2ccccc2[nH]1 (configuration not stated)
0.962

What value of community biomass OD578 has been reported for the following compound? "CN(N=O)C(=O)N[C@@H](C=O)[C@@H](O)[C@H](O)[C@H](O)CO"
0.921

What value of community biomass OD578 has been reported for the following compound? "C[C@]12CCC3=C4CCC(=O)C=C4CC[C@H]3[C@@H]1CC[C@@]2(O)CC#N"
1.01

What value of community biomass OD578 has been reported for the following compound? "Nc1nc(=S)c2ncn([C@@H]3O[C@H](CO)[C@@H](O)[C@H]3O)c2[nH]1"
1.05

What value of community biomass OD578 has been reported for the following compound? "C[C@H]1c2cccc(O)c2C(=O)C2=C(O)[C@]3(O)C(=O)C(C(N)=O)=C(O)[C@@H](N(C)C)[C@@H]3[C@@H](O)[C@@H]21"
0.06

What value of community biomass OD578 has been reported for the following compound? "NC[C@H]1O[C@H](O[C@H]2[C@H](O)[C@@H](O[C@H]3O[C@H](CO)[C@@H](O)[C@H](N)[C@H]3O)[C@H](N)C[C@@H]2N)[C@H](N)C[C@@H]1O"
0.969

What value of community biomass OD578 has been reported for the following compound? "Clc1ccc(Cn2c(CN3CCCC3)nc3ccccc32)cc1"
1

What value of community biomass OD578 has been reported for the following compound? "CC/C(=C(\c1ccccc1)c1ccc(OCCN(C)C)cc1)c1ccccc1"
0.977
